Target: human ferroportin (Homo sapiens, UniProt Q9NP59)
Construct: luciferase reporter (read with the Nano-Glo Luciferase Assay System); expressed in transfected cells; host or cells: CHO cells, stably transfected, expression induced with doxycycline
Sequence (Q9NP59 1-571): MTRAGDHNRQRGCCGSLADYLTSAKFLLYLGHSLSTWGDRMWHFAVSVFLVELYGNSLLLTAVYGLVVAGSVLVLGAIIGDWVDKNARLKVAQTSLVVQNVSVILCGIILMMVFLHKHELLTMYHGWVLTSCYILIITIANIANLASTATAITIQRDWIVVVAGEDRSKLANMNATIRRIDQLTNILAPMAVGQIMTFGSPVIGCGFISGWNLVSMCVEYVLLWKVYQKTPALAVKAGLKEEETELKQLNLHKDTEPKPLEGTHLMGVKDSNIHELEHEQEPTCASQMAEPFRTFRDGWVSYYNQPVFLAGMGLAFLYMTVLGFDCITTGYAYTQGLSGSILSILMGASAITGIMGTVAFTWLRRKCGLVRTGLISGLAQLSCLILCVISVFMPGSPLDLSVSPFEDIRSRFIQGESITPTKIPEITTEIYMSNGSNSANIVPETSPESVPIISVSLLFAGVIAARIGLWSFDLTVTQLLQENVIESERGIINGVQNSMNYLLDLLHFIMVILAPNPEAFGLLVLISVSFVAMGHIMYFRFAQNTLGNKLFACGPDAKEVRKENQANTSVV
Assay: Biological in-vitro ferroportin internalization assay (luciferase reporter)
Type: cell-based
Details: average pEC50; stably-transfected CHO cell line expressing human ferroportin tagged to a luciferase reporter; 6 h incubation with test compound
PROPERTY: pEC50

[[record]]
chemical_string = "CN(C)CCOc1ccnc(-c2nc3c(c(N(C)CC(=O)NC(C)(C)C)n2)CCC3)c1"
property = "pEC50"
experimental_result = 8.0

[[record]]
chemical_string = "COc1ccnc(-c2nc3c(c(N(C)[C@H](C)C(=O)NC(C)(C)C)n2)CCC3)c1"
property = "pEC50"
experimental_result = 8.2

[[record]]
chemical_string = "c1ccc(-c2nc3c(c(N4CCCO[C@@H]5CCC[C@@H]54)n2)CCC3)nc1"
property = "pEC50"
experimental_result = 6.8

[[record]]
chemical_string = "CN(CC(=O)NC(C)(C)C)c1nc(-c2cc3ncsc3cn2)nc2c1CCC2"
property = "pEC50"
experimental_result = 6.8

[[record]]
chemical_string = "CC(C)(O)COc1ccnc(-c2nc3c(c(NCC(=O)NC(C)(C)C)n2)CCC3)c1"
property = "pEC50"
experimental_result = 7.6

[[record]]
chemical_string = "COc1ccnc(-c2nc3c(c(N(C)CC(=O)Nc4ccc(F)nc4)n2)CCC3)c1"
property = "pEC50"
experimental_result = 7.4

[[record]]
chemical_string = "CN(CC(=O)NC(C)(C)C)c1nc(-c2c[nH]cn2)nc2c1CCC2"
property = "pEC50"
experimental_result = 7.6

[[record]]
chemical_string = "CN(CC(=O)NC(C)(C)C)c1nc(-c2cc(OCC(C)(C)N(C)C)ccn2)nc2c1CCC2"
property = "pEC50"
experimental_result = 8

